- Study system: L-lactate dehydrogenase (Plasmodium falciparum (isolate CDC / Honduras)) (UniProt Q27743)
- Sequence (Q27743 whole entry, looked up): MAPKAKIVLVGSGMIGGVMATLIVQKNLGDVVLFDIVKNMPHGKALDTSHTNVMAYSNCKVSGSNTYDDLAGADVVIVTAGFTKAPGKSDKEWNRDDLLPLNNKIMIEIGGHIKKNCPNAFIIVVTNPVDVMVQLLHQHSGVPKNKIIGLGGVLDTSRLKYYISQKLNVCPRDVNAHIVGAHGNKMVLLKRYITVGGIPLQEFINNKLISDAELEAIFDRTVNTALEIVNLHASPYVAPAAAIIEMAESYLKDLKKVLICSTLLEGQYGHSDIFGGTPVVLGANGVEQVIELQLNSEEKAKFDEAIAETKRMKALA
- Test name: PfLDH activity inhibition – cell lysate, 3D7 strain, counter-screen for P. falciparum growth inhibition project (AID 2304);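 note: 0% = vehicle and 100% = reference inhibitor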
- Study conditions: P. falciparum 3D7 crude extract, LDH APAD/NBT absorbance; at 2 µM; hits give high values

| Compound | Unit info | inhibition |
| --- | --- | --- |
| CC(C)N1CCN(C(=O)c2ccc(CN(C)CCCN3CCN(c4cccc(Cl)c4Cl)CC3)s2)CC1 | % | 3 |
| Cc1ccc(-c2noc(COc3ccccc3C(=O)NC3CCCC3)n2)cc1 | % | -4 |
| CC(C)C1=CC(=NOS(=O)(=O)c2ccccc2)C=C(C(C)C)C1=O | % | -3 |
| Nc1nc(N)c2c(ccc3c2ccn3Cc2ccccc2)n1 | % | -8 |
| O=C(/C=C/c1cccc(Cl)c1)Nc1ccc2nc(CN3CCCC3)ccc2c1 | % | 4 |
| CC(C)c1ccc(CN2CCC(NC(=O)c3ccc(-c4cccc(Cl)c4)s3)CC2)cc1 | % | 3 |
| O=C1COc2ccc(CNC3CCC(O)(CCc4ccnc5cc6c(cc45)OCCO6)CC3)nc2N1 (stereo not given) | % | -6 |
| CN(C)c1ccc(-c2csc(C(=O)NCC3CCN(Cc4ccc(C(C)(C)C)cc4)C3)c2)cc1 (stereo not given) | % | 0 |
| CC(=O)Nc1ccc(NC(=O)c2cc(-c3cc(Cl)ccc3O)n[nH]2)cc1 | % | -2 |
| CCc1c[nH]c2c(N3CCCCC3=O)cc(C(=O)N[C@@H](Cc3ccccc3)[C@H](O)CNCc3cccc(OC)c3)cc12 | % | -1 |
| Cc1ncc([N+](=O)[O-])n1CCOC(=O)NC(NCC1COc2ccccc2O1)C(Cl)(Cl)Cl (stereo not given) | % | -4 |
| CNC(=O)C1Cc2c([nH]c3cc(Cl)ccc23)C2(CCN(CCc3ccccc3)CC2)N1 (stereo not given) | % | 4 |
| Cc1ccc(C2(CN3CCC(NC(=O)c4ccn[nH]4)CC3)CCCCC2)cc1 | % | -3 |
| COc1cc2nc(N3CCC(CNC(=O)c4ccc(C(C)=O)cc4)CC3)nc(N)c2cc1OC | % | 1 |
| Fc1ccc2nc(-c3cccc(-c4cccc(CNCCN5CCNCC5)c4)c3)[nH]c2c1 | % | -9 |
| Oc1ccc(CCNc2nc(NCCCOc3cc(CN4CCCCC4)ccc3F)nc(N3CCNCC3)n2)cc1 | % | -1 |
| N#Cc1ccc2[nH]cc(CN3CCC4(CC3)CN(CCNCc3ccccc3)C(=O)CO4)c2c1 | % | 1 |
| Cc1cc(SC(C)(C)C)cc2c(Cl)c(C(N)=O)cnc12 | % | 0 |
| Nc1cc(-c2ccc(Br)cc2O)nc2ccccc12 | % | 0 |
| COc1ccc2[nH]cc(C3CCN(CCCCNC(=O)c4ccc(NC(=O)c5ccc(Cl)cc5)cc4)CC3)c2c1 | % | 3 |
